Reference source: patent US5646180A

- Measurement Description: aqueous solubility
- Assay type: physicochemical
- Conditions: water
Measurement Label: solubility

Entry CC(C)CN(CC(O)C(Cc1ccccc1)NC(=O)OC1CCOC1)S(=O)(=O)c1ccc(N)cc1 (stereo not shown) ; solubility = ≥ 100 µg/mL
